Attribution: patent US7829563B2

Molecular target: human orexin-2 (hOX2) receptors (Homo sapiens)
Construct: expressed in transfected cells
Sequence (O43614 1-444): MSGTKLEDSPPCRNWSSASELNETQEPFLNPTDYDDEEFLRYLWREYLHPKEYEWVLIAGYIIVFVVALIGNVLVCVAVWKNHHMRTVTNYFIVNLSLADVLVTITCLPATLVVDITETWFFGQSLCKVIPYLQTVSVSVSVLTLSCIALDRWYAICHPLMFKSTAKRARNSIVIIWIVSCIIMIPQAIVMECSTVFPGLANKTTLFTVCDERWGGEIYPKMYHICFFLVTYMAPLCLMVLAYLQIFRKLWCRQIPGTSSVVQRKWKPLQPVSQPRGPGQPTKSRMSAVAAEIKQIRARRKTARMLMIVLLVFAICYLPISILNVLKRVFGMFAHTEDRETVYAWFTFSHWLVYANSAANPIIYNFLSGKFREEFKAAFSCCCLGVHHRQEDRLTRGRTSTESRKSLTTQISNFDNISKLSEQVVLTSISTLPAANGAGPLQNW
Assay: Intracellular Ca2+ mobilization assay (FLIPR), antagonism of orexin-A
Assay type: cell-based
Details: CHO(dHFr−) cells stably expressing hOX2; orexin-A at EC80 as agonist; Kb=IC50/(1+[A]/EC50); read-out: Kb (μM) OX2R (human)
Where a name gives a salt, the structure may show the parent alone.
assayEndpoint: Kb (µM)
One number for each entry, in µM.

CNC(=O)[C@H](N[C@@H](CCc1ccc(C(F)(F)F)nc1)c1ccc(OC(F)F)c(OC)c1)c1ccc(Cl)cc1 (racemic) [Example 234] | 0.013
CNC(=O)[C@H](N[C@H](CCc1ccc(C(F)(F)F)cc1)c1ccc(Cl)c(OC)c1)c1ccccc1 (racemic) [Example 176] | 0.0086
CNC(=O)[C@H](N[C@@H](CCc1ccc(C(F)(F)F)nc1)c1ccc(OC)c(OC)c1)c1ccccc1 [Example 200, hydrochloride] | 0.0028
CCNC(=O)[C@H](N[C@@H](CCc1ccc(C(F)(F)F)nc1)c1ccc(F)c(C)c1)c1ccccc1 (racemic) [Example 340] | 0.0178
CNC(=O)[C@H](N[C@@H](CCc1ccc(C)cc1)c1ccc(F)c(C)c1)c1ccccc1 (racemic) [Example 365] | 0.0124
CNC(=O)[C@H](N[C@@H](CCc1ccc(C(F)(F)F)cc1)c1ccc(Cl)c(OC)c1)c1ccccc1 (racemic) [Example 177] | 0.0099

// query State its Kb on human orexin-2 (hOX2) receptors (Homo sapiens): CNC(=O)[C@H](N[C@@H](CCc1ccc(Cl)cn1)c1ccc(OC(F)F)c(OC(F)F)c1)c1ccccc1 (racemic) [Example 306]
// result 0.0063
